- Test system: Bacillus subtilis
- Assay Method Text: cleaved RNA product abundance (RNA/gDNA barcode ratio) relative to median wild-type variant (ratio to wild type); higher = more accumulation of the downstream cleavage product
- Condition Notes: experiment (reporter, strain, medium): exp 8a: truncated aprE reporter, strain BJT201 with 2% xylose (RNase J1 expressed); cleavage site: glnRA (positions -5 to +31 mutated)
Each entry below carries its recorded cleaved RNA product abundance.
Just the number, please.

1. CGACATGTCCCGCTTCTTTCATTAATCCGTTAGCAACTATTTTGCTATATACGTTTACCTTTTAAGAGGAGGAAT | 0.197
2. CGACATGTCCCGCTTCTTTCATTAATCAGTTAGCAACTGTTTTGCTATATACATTAACCTTTTAAGAGGAGGAAT | 0.984
3. CGACATGTCCCGCTTCTTTCATTAATCCGATAGCAACTGCTTTGCTATATACATTTACCTTTTAAGAGGAGGAAT | 0.492
4. CGACATGTCCCGCTTCTTTCATTAATCCGTTAGCAACTGTTTTGCTATATACATTTTCCTTTTAAGAGGAGGAAT | 0.416

Data point: CGACATGTCCCGCTTCTTTCATTACTCCGTTAGCAAGTGTTTTGCTATATACATTTACCTTTTAAGAGGAGGAAT ; cleaved RNA product abundance = 0.557

So, CGACATGTCCCGCTTCTTTCATTAATCCGTAAACAACTGTTTTGCTATATACATTTACCTTTTAAGAGGAGGAAT ? Its cleaved RNA product abundance was 0.159

Entry under test: CGACATGTCCCGCTTCTTTCATTAATCCGTTAGCAACTGTGTAGCTATATACATTTACCTTTTAAGAGGAGGAAT . Its cleaved RNA product abundance was 0.23

Per the records, this sequence ( CGACATGTCCCGCTTCTTTCATTAATCCGTTATCAACTGTTTTGATATATACATTTACCTTTTAAGAGGAGGAAT ) has cleaved RNA product abundance equal to 0.26

Measured cleaved RNA product abundance of CGACATGTCCCGCTTCTTTCATTAATCCGTTAACAACTGTTTTGCTATATAAATTTACCTTTTAAGAGGAGGAAT : 0.227

Entry CGACATGTCCCGCTTCTTTCATTAATCCGTTACCAACTGTTTTGCTATATACATTTAACTTTTAAGAGGAGGAAT — recorded cleaved RNA product abundance = 0.282

CGACATGTCCCGCTTCTTTCATTAATCCGATAGCAACTCTTTTGCTATATACATTTACCTTTTAAGAGGAGGAAT has a reported cleaved RNA product abundance of 0.19

Reported cleaved RNA product abundance for CGACATGTCCCGCTTCTTTCATTAATCCGTTAGCAACTGTTTAGCTATATACATTTAGCTTTTAAGAGGAGGAAT was 0.608

Noted for CGACATGTCCCGCTTCTTTCATTAATCCGTTGGCAACTGATTTGCTATATACATTTACCTTTTAAGAGGAGGAAT : its cleaved RNA product abundance reads 0.729

Consider CGACATGTCCCGCTTCTTTCATTAATCCGTTAATAACTGTTTTGCTATATACATTTAACTTTTAAGAGGAGGAAT . Its measured cleaved RNA product abundance is 0.205

Entry CGACATGTCCCGCTTCTTTCATTAATCAGTTAGCAACTGTTTTGCTATATACATTTACCATTTAAGAGGAGGAAT — recorded cleaved RNA product abundance = 0.636
